# Test system: Human PBMC
# ASSAY TEXT: Effect of Ribavirin on CpG ODN-induced cytokines in human PBMC co-culture
# Type: cell-based
# MEASUREMENT CONTEXT: Homo sapiens, PBMC; calculated IC50 upon addition of Ribavirin to cultures containing 1 μM SEQ ID NO: 13; read-out: IC50 IL-10
OBSERVABLE: IC50
Entry format: amount then unit.

Enquiry: Query the reported IC50 for Human PBMC; item: NC(=O)c1ncn([C@@H]2O[C@H](CO)[C@@H](O)[C@H]2O)n1 [Ribavirin]
Return: 58 µM

====

# Tested on: Human PBMC
# ASSAY TEXT: Effect of Ribavirin on CpG ODN-induced cytokines in human PBMC co-culture
# Format: cell-based
# MEASUREMENT CONTEXT: Homo sapiens, PBMC; calculated IC50 upon addition of Ribavirin to cultures containing 1 μM SEQ ID NO: 13; read-out: IC50 IL-6
OBSERVABLE: pIC50
// field semantics: pIC50 = negative decimal log of concentration (mol/L)

Enquiry: Query (compound): NC(=O)c1ncn([C@@H]2O[C@H](CO)[C@@H](O)[C@H]2O)n1 [Ribavirin] ; field requested: pIC50
Return: 3.49

====

# Test system: Human PBMC
# ASSAY TEXT: Effect of Ribavirin on CpG ODN-induced cytokines in human PBMC co-culture
# Type: cell-based
# MEASUREMENT CONTEXT: Homo sapiens, PBMC; calculated IC50 upon addition of Ribavirin to cultures containing 1 μM SEQ ID NO: 13; read-out: IC50 IFN-alpha
OBSERVABLE: IC50 (µM)
The response must be a number in µM with no trailing unit.

Enquiry: Query the reported IC50 for Human PBMC; item: NC(=O)c1ncn([C@@H]2O[C@H](CO)[C@@H](O)[C@H]2O)n1
Return: 1000
